System: primary human dermal fibroblasts
protocol-details: PDGF-induced proliferation, EdU incorporation assay
Assay type: cell-based
condition-description: Fibroblast, 24 h, NC: not converged
readout-type: IC50 (µM)
// return numeric value only (unit: µM, not printed)

Note to self: IC50 recorded for O=C(O)CCCc1cc2cc(Cl)ccc2n1S(=O)(=O)c1ccc2ncsc2c1 [compound A] was 11.5

----------
study-target: mouse PPARγ (Mus musculus)
Sequence (P37238 238-505 limits assumed): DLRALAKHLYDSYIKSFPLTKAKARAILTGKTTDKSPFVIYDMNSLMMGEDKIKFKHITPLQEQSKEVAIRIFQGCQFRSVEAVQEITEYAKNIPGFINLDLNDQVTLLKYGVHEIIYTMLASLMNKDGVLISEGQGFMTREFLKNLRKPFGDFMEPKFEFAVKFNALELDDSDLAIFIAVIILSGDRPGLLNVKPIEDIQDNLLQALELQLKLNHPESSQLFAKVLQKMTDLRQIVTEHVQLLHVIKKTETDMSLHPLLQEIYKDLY
protocol-details: cell-based
readout-type: EC50 (nM)
// return numeric value only (unit: nM, not printed)

Note to self: EC50 recorded for O=C(O)CCCc1cc2cc(Cl)ccc2n1S(=O)(=O)c1ccc2ncsc2c1 [compound A] was 170

----------
study-target: human PPARδ (Homo sapiens)
Sequence (Q03181 211-441 limits assumed): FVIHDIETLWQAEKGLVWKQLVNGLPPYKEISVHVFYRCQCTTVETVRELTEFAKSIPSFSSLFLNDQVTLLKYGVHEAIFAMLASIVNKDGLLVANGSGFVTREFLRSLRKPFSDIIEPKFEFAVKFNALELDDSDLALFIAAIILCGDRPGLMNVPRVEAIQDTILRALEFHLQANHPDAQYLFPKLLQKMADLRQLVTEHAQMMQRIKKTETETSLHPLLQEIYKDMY
protocol-details: Transient transactivation assay, Cos-7 cells, chimeric PPARδ-Gal4, luciferase reporter
condition-description: Gal4 chimera, mean of 6 experiments
readout-type: pEC50
Please report pEC50 as the negative decimal logarithm of the molar concentration, giving only the number.

Note to self: pEC50 recorded for O=C(O)CCCc1cc2cc(Cl)ccc2n1S(=O)(=O)c1ccc2ncsc2c1 [compound A] was 6.28
